Taken from PubChem BioAssay (NCI).

- Protocol details: NCI Yeast Anticancer Drug Screen. Data for the wt1 strain (AID 149);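 note: 0% = growth of vehicle-treated wt1 cultures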
- Particulars: S. cerevisiae wt1 strain (SPY 50644) growth inhibition; at 1.2 µM
This is part of a sample that, as a whole, favours compounds with a hit. Of some 79,000 tested, about 15% had one in any assay. Calls of active or inactive are those of the source. Cut-off read from the data, not from the text of the source: active = growth inhibition above about 70%; inactive = the rest.
Outcomes you can answer with include only these: true (1) for active, false (0) for inactive

Compound: CN1CCN(c2ccc3nc(-c4ccc5nc(-c6ccc(O)cc6)[nH]c5c4)[nH]c3c2)CC1
Cat: false (0)
--
Compound: Cc1ccc(S(=O)(=O)N/N=C/c2c(O)ccc3ccccc23)cc1
Cat: false (0)
--
Compound: CC(C)c1ccc(C2NC(=S)NC3=C2c2ccccc2C3=O)cc1 (stereo unspecified)
Cat: false (0)
--
Compound: N=C(N)c1ccc(N=Nc2c(O)ccc3c2[nH]c2ccccc23)cc1
Cat: false (0)
--
Compound: S=C1NC2=C(CSC/C2=C\c2ccc(Cl)cc2)C(c2ccc(Cl)cc2)N1 (stereo unspecified)
Cat: false (0)

Outcome? O=S(=O)(CCC[C@H]1[C@@H](CCOCc2ccccc2)C2CCCN1O2)c1ccccc1 (stereo partly specified)
false (0)

Next record, please: O=C(Cc1ccccc1F)NC1=C(Cl)C(=O)c2ccccc2C1=O
false (0)

Next record, please: O=C1C(Br)=CC(Br)(Br)C=C1Br
false (0)

Next record, please: CN(C)c1ccc(C(c2ccc(Cl)cc2)c2ccc(N(C)C)cc2)cc1
false (0)

Next record, please: O=C1C=CC(=O)N1c1ccc(Br)cc1Cl
true (1)

Next record, please: O=C(O)/C=C\C(=O)NNc1ccc(Br)cc1
false (0)

Next record, please: CC1(C)CC(=O)C(C(CC(c2ccccc2)c2cc3c(cc2O)OCO3)C2=C(O)CC(C)(C)CC2=O)=C(O)C1 (stereo unspecified)
false (0)

Next record, please: CCOC(=O)c1[nH]c2cccc3c2c1CC(Br)C3=O (stereo unspecified)
false (0)

Next record, please: O=C1c2ccccc2C(=O)C1C(c1ccc(F)cc1)C1C(=O)c2ccccc2C1=O
false (0)

Next record, please: Oc1ccc(Cc2nccc3cc(O)c(O)cc23)cc1O
false (0)

Next record, please: COc1cc(C(C)(C)C)cc(OC)c1C(O)(c1c(OC)cc(C(C)(C)C)cc1OC)c1c(OC)cc(C(C)(C)C)cc1OC
false (0)

---

- Protocol details: NCI Yeast Anticancer Drug Screen. Data for the rad14 strain (AID 159);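 note: 0% = growth of vehicle-treated control cultures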
- Particulars: S. cerevisiae rad14 strain growth inhibition; at 100.0 µM; hits give high values
- Experimental: Growth inhibition of yeast strains with defined genetic alterations is measured as a screen for potential anti-cancer activity. Selected strains with alterations in DNA damage repair or cell cycle control were exposed to compounds and growth inhibition was measured relative to vehicle treated controls. The strain used in this assay is rad14
The panel holds about 79,000 compounds, 15% with a hit somewhere; the sample as a whole holds those more often.
Measurement label: growth inhibition (%)
Numbers only, in %.

Past entries and their recorded results:
Compound: Oc1ccc(Br)cc1C=Nc1cccc(C(F)(F)F)c1
Measurement label: growth inhibition
Unit descriptor: %
Result number: 97
--
Compound: Cc1cccc(N2CCN(C(=O)/C(=C/c3ccccc3)NC(=O)c3ccccc3)CC2)c1
Measurement label: growth inhibition
Unit descriptor: %
Result number: 35

Take each entry in turn and give its growth inhibition.
1. N=C(N)c1ccc(N=Nc2c(O)ccc3c2[nH]c2ccccc23)cc1
2. CCCCCCC(CCl)c1sc(-c2csc(CCNC(=O)OC(C)(C)C)n2)nc1C(=O)OC (stereo not given)
3. O=C(Nn1c(-c2ccccc2)nc2ccccc2c1=O)c1ccc(Cl)cc1

[97, 97, 91]

---

- Protocol details: NCI Yeast Anticancer Drug Screen. Data for the mec2-1 strain (AID 157)
- Particulars: S. cerevisiae mec2-1 strain, at 50.0 µM (retest, dose inferred, filed as 5.0)
About 79,000 compounds went through this panel and 15% of them were active in at least one assay; those are over-represented in the sample as a whole. The source made the active and inactive calls. Cut-off read from the data, not from the text of the source: active = growth inhibition above about 70%; inactive = the rest.
Outcomes you can answer with include only these: active, inactive

Compound: Cc1ccc2c(/C=C/c3ccc(N(C)C)cc3)ccnc2c1C
Cat: inactive
//
Compound: c1cc(Nc2ccc3c(c2)OCO3)c2cc(C3CCCCC3)ccc2n1
Cat: inactive
//
Compound: O=C1C=CC(=O)N1c1ccc(Br)cc1Cl
Cat: inactive
//
Compound: Oc1ccc(Cc2nccc3cc(O)c(O)cc23)cc1O
Cat: active
//
Compound: COc1ccc2c(Cc3c4ccccc4cc4ccccc34)cncc2c1O
Cat: active
//
Compound: Nc1ccc2cc(Br)c3ccccc3c2c1
Cat: inactive

Outcome? CCN(CC)CCSc1c2ccccc2nc2cc(NCC(=O)Nc3ccccc3-c3ccccc3NC(=O)CNc3ccc4c(SCCN(CC)CC)c5ccccc5nc4c3)ccc12
active

Next record, please: Cc1nc2ccc(Br)cc2c(=O)n1-c1ccc(NC2OCC(O)C(O)C2O)cc1 (stereo not drawn)
inactive

Next record, please: CC(C)(C)[Si](C)(C)OCC1OC(n2cnc3c(N)ncnc32)C2OC(=S)OC12 (stereo not drawn)
inactive

Next record, please: CC(=O)CC[N+](C)(C)C
inactive

Next record, please: O=C(Cc1ccccc1)c1ccc(O)cc1
active

Next record, please: Cc1cc(N(CCOS(C)(=O)=O)CCOS(C)(=O)=O)ccc1C=O
inactive

Next record, please: Cc1ccnc(NS(=O)(=O)c2ccc(Nc3c4ccccc4nc4ccccc34)cc2)n1
active

---

Kindly supply the reported growth inhibition values for the records listed here.
- Protocol details: NCI Yeast Anticancer Drug Screen. Data for the mlh1 rad18 strain (AID 175)
- Particulars: S. cerevisiae mlh1 rad18 strain growth inhibition; at 50.0 µM (retest, dose inferred, filed as 5.0); hits give high values
Compounds without any hit were thinned out: in the full panel of roughly 79,000, 15% have a hit.
Give bare numbers, in %.

Past entries and their recorded results:
Molecule: O=C(Nn1c(-c2ccccc2)nc2ccccc2c1=O)c1ccc(Cl)cc1
growth inhibition / %: 68
//
Molecule: S=C1NC2=C(CSC/C2=C\c2ccc(Cl)cc2)C(c2ccc(Cl)cc2)N1 (stereo not given)
growth inhibition / %: 96
//
Molecule: O=C1c2ccc(O)cc2C(=O)c2c(O)ccc(O)c21
growth inhibition / %: 97

Take each entry in turn and give its growth inhibition.
1. COc1ccc2c(Cc3c4ccccc4cc4ccccc34)cncc2c1O
2. Cc1ccc(SSc2ccc(C)cc2[N+](=O)[O-])c([N+](=O)[O-])c1
3. CC(=O)c1ccc(NCN2C(=O)c3ccccc3C2=O)cc1
4. Cc1ccc(Nc2n[nH]c(=S)s2)cc1C
5. Cc1nc2ccc(NCCN(C)C)c3c(=O)c4ccccc4n1c23
6. O=[N+]([O-])c1cccc2nc3ccccc3c(NCCC[N+]3([O-])CCOCC3)c12
7. CN(C)N1C(=O)SCC(c2ccccc2)(c2ccccc2)C1=O
8. O=c1c(Br)cc2c(-c3ccccc3)c3cc(Br)c(O)c(Br)c3oc-2c1Br

1: 97; 2: 80; 3: 99; 4: 99; 5: 43; 6: 98; 7: 29; 8: 58

Take each entry in turn and give its growth inhibition.
1. O=C(O)CN(CCNC(=O)OCC1c2ccccc2-c2ccccc21)CCNC(=O)OCC1c2ccccc2-c2ccccc21
2. Cc1[nH]nc(C(F)(F)F)c1N=NN(C)C
3. COc1ccc2cc(CN3CCC(C4CCN(Cc5ccc6cc(OC)ccc6c5)CC4)CC3)ccc2c1
4. C#CC1=CC(=O)C(OC)=CC1=O
5. COC1=C(N=[N+]=[N-])C(=O)c2ncccc2C1=O

1. 62
2. 98
3. 80
4. 99
5. 95

Take each entry in turn and give its growth inhibition.
1. CCOC(=O)/C(O)=C(/C=N/C(=S)Nc1c(CC)cccc1CC)C(=O)OCC
2. Cc1ccnc(NS(=O)(=O)c2ccc(Nc3c4ccccc4nc4ccccc34)cc2)n1
3. CCOC(=O)C(NC(=O)c1ccccc1)[CH](c1ccccc1)[Sn]([c]1ccccc1)([c]1ccccc1)[c]1ccccc1 (stereo not given)
4. O=C(N/N=C/c1ccc2c(c1)CCC2)c1ccccc1[N+](=O)[O-]

36
74
79
99

---

- Protocol details: NCI Yeast Anticancer Drug Screen. Data for the mec2-1 strain (AID 157)
- Particulars: S. cerevisiae mec2-1 strain, at 3.7 µM, hits give high values
Compounds without any hit were thinned out: in the full panel of roughly 79,000, 15% have a hit. Starred links: 1 amine or outer side, 2 acyl side, 3 side chain; linkers in the order of their positions; H or OH if unused. Positions of bridges follow the written chain, without caps; N, C: chain ends. Non-standard residues stand in square brackets, D forms with d. Residues, ends and D or L forms follow the SMILES beside them. Chains are numbered I, II in the order given. Actinocin(9to1) = Cc1c2oc3c(C)ccc(C(=O)[*:1])c3nc-2c(C(=O)[*:2])c(N)c1=O; aThr = C[C@H](O)[C@H](N)C(=O)O; NMeV = CN[C@H](C(=O)O)C(C)C; Sar = CNCC(=O)O
Kindly supply the reported growth inhibition values for the records listed here.
Numbers only, in %.

Past entries and their recorded results:
Compound: O=C1C=CC(=O)N1c1ccc(Br)cc1Cl
Result number: 101
--
Compound: Cc1ccc(S(=O)(=O)N/N=C/c2c(O)ccc3ccccc23)cc1
Result number: 1
--
Compound: CN1CCN(c2ccc3nc(-c4ccc5nc(-c6ccc(O)cc6)[nH]c5c4)[nH]c3c2)CC1
Result number: -17
--
Compound: O=C(O)CN(CCNC(=O)OCC1c2ccccc2-c2ccccc21)CCNC(=O)OCC1c2ccccc2-c2ccccc21
Result number: -5

Take each entry in turn and give its growth inhibition.
1. CCOC(=O)c1sc2[n+](c1C)C(=O)/C(=C/c1cc(OC)c(OC)c(OC)c1)S2
2. Cc1cccc(N2CCN(C(=O)/C(=C/c3ccccc3)NC(=O)c3ccccc3)CC2)c1
3. Cc1cnc(/C=N\NC(N)=S)c2cccc(N)c12
4. COc1ccc(/C=C2\S/C(=N/Nc3nc(-c4ccccc4)cs3)NC2=O)cc1OC
5. Cc1c2oc3c(C)ccc(C(=O)N[C@@H]4C(=O)N[C@H](C(C)C)C(=O)N5CCC[C@H]5C(=O)N(C)CC(=O)N(C)[C@@H](C(C)C)C(=O)O[C@H]4C)c3nc-2c(C(=O)N[C@@H]2C(=O)N[C@H](C(C)C)C(=O)N3CCC[C@H]3C(=O)N(C)CC(=O)N(C)[C@@H](C(C)C)C(=O)O[C@H]2C)c(N)c1=O (I: [aThr][dV]P[Sar][NMeV] / II: [aThr][dV]P[Sar][NMeV]; ester I:1-I:C, II:1-II:C; linker I:N-II:N via Actinocin(9to1))

1. 18
2. 0
3. -48
4. 88
5. 29
